Target: T1, 4H3094-AA
T1 chain: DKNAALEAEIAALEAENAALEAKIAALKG
Assay: two-hybrid library CCmax;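 also: natural log of median RNA to DNA barcode read ratio; higher means stronger binding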
Details: mean of both orientations
Readout: interaction score

Binder	Data Value
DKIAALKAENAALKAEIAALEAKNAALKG [4H2760-AA]	2.17
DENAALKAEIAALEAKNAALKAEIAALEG [4H1593-AA]	1.88
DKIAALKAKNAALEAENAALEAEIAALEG [4H2961-AA]	-1.08
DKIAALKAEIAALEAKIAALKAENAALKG [4H2604-AA]	-1.23
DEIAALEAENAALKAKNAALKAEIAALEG [4H249-AA]	-0.0288
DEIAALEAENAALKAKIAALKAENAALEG [4H235-AA]	0.0844
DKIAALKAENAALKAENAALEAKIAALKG [4H2774-AA]	-0.282
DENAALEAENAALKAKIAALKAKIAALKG [4H1262-AA]	-0.633

1. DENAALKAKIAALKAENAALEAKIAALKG [4H1878-AA]
2. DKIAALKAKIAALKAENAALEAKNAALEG [4H2903-AA]
3. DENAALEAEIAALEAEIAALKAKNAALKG [4H1040-AA]
// smallest interaction score at index 0, largest at the end Write the labels, ordered according to the request. 3, 2, 1
